So I've got a bunch of compounds here, and I need their activation values.
Target: Thyrotropin-releasing hormone receptor (Homo sapiens)
Assay: qHTS for Small Molecule Agonists and Allosteric Enhancers of Human TRH Receptor: Primary Screen for Agonists. Also: 0% is about no effect.
Settings: TRHR cells, calcium flux fluo-8, FDSS agonist mode; at 2 µM; hits give high values
The campaign covered roughly 360,000 compounds. About 650 (0.18%) were called active. The sample as a whole holds a higher share of actives than the screen did.
The answer is to be given in %; state only the numeric part.

Just so you know, measured activation for `COc1cccc(NC(=O)Nc2ccc3c(c2)N(C)C(=O)c2ccccc2S3)c1` came out at -0.213

Sample `COc1cc(/C=C2/SC(=S)N(Cc3ccccc3)C2=O)cc(OC)c1O` ; activation observed: 33.6

CC1CCCN(c2cc3c(cc2F)c(=O)c(S(=O)(=O)c2cccc(Cl)c2)cn3Cc2ccccc2)C1 (stereo not drawn) yielded activation of 0.542

Consider `CCN1/C(=C\c2ccc3ccccc3[n+]2CC)Sc2cc(C)ccc21` . Its measured activation is 34.6

The value of activation measured for the compound `Cc1ccc(S(=O)(=O)c2cn(Cc3ccccc3)c3cc(N4CCCC4)c(F)cc3c2=O)c(C)c1` turned out to be 0.661

For this compound ( `CCOC(=O)C1CCN(c2nc3c(S(=O)(=O)c4ccc(CC)cc4)nnn3c3ccc(Cl)cc23)CC1` ), measured activation is 0.759

Entry CCCC12CN3CC(CCC)(CN(C1)C3c1c[nH]c3ccc(OC)cc13)C2=O (stereo not drawn) ; activation = 2.39

Lab note: O=C1C(F)N([S+](=O)([O-])c2ccc3c(c2)OCCO3)CCN1[S+](=O)([O-])c1c(F)cccc1F (stereo not drawn) gave activation of 0.239

Lab note: `COc1cc(C(=S)NCc2ccccc2)cc(Br)c1O` gave activation of -0.891

For record `CCOc1cc(/C=C(\C#N)c2nc(-c3cccs3)c(NC(C)=O)s2)ccc1O` the listed activation is 37.3

Lab book: activation of `CCOC(=O)c1c(C)oc2nc(C)nc(N3CCN(c4ccc(OC)cc4)CC3)c12` noted as -1

// activation value for `COc1ccc(CCNC(=O)CCCCn2c(=O)c3ccccc3n(Cc3ccccc3)c2=O)cc1OC` : -0.65

Consider `O=S(=O)(c1ccc(Br)cc1)c1nnn2c1nc(N1CCOCC1)c1sccc12` . Its measured activation is -0.0076

Recorded result, `O=C(NCc1nnc(C(=O)Nc2ccc(C(F)(F)F)cc2Cl)o1)c1ccccc1` , activation: -2.31

// recorded activation for O=C(Cc1ccc(Cl)cc1)NCC(c1cccs1)S(=O)(=O)c1ccc(Cl)cc1 (stereo not drawn) : -0.0259

The compound listed as Cc1cccc(C(=O)NCc2nnc(SC(C)C(=O)Nc3nnc(C)s3)n2C)c1 (stereo not drawn) shows activation equal to -0.0214

Record `CCOc1cc(/C=C(\C#N)C(=O)Nc2ccccc2C)ccc1OCc1cc(=O)n2nc(CC)sc2n1` , field activation: -1.33

Consider `Cc1cc2c(s1)c1cnn(Cc3c(F)cccc3Cl)c(=O)c1n2C` . Its measured activation is -0.043

Hello, the source for this data is PubChem BioAssay AID493084, in case you need it.
